Every entry's value here was drawn from ChEMBL document CHEMBL1133857.

- targetOrSystem: Beta-2 adrenergic receptor and beta-3 adrenergic receptor (Homo sapiens) (UniProt P07550+P13945)
- experimentalProtocol: Selectivity as the ratio of Ki of beta-2 adrenergic receptor to the Ki of beta-3 adrenergic receptor.
- Type: protein assay
Selectivity listing for selected compounds.
metricName: Selectivity

{"compound": "COc1ccc(C(Cc2ccccc2)NCC(O)c2ccc(O)c(NS(C)(=O)=O)c2)c(OC)c1 (stereo not given)", "metricName": "Selectivity", "value": 3}
{"compound": "COc1cccc(C(Cc2ccccc2)NCC(O)c2ccc(O)c(NS(C)(=O)=O)c2)c1 (stereo not given)", "metricName": "Selectivity", "value": 2}
{"compound": "COCc1ccc(C(NC[C@H](O)c2ccc(O)c(NS(C)(=O)=O)c2)c2ccc(COC)cc2)cc1", "metricName": "Selectivity", "value": 13}
{"compound": "CNC(=O)CCCCC(Cc1ccccc1)NCC(O)c1ccc(O)c(NS(C)(=O)=O)c1 (stereo not given)", "metricName": "Selectivity", "value": 0.5}
{"compound": "CS(=O)(=O)Nc1cc(C(O)CNC(Cc2ccccc2)Cc2ccccc2)ccc1O (stereo not given)", "metricName": "Selectivity", "value": 0.3}
